targetDesc: MR Hap 4 (GG) (Homo sapiens)
protocol: Cortisol-induced transactivation assay, TAT3-Luc reporter in Cos-1 cells
assayContext: TAT-3 promoter, 24 h, read-out: EC50 of cortisol-induced luciferase transcription
measurementLabel: EC50

In: Recorded EC50 of C[C@]12CCC(=O)C=C1CC[C@@H]1[C@@H]2[C@@H](O)C[C@@]2(C)[C@H]1CC[C@]2(O)C(=O)CO , please.
Out: 0.073 nM

====

targetDesc: MR Hap 1 (GA) (Homo sapiens)
protocol: Cortisol-induced transactivation assay, TAT3-Luc reporter in Cos-1 cells
assayContext: TAT-3 promoter, 24 h, read-out: EC50 of cortisol-induced luciferase transcription
measurementLabel: pEC50
Please treat pEC50 as minus the base-10 logarithm of the molar concentration.

In: Recorded pEC50 of C[C@]12CCC(=O)C=C1CC[C@@H]1[C@@H]2[C@@H](O)C[C@@]2(C)[C@H]1CC[C@]2(O)C(=O)CO [cortisol] , please.
Out: 10.41

====

targetDesc: MR Hap 3 (CG) (Homo sapiens, UniProt P08235)
Sequence (P08235 1-984 V241A): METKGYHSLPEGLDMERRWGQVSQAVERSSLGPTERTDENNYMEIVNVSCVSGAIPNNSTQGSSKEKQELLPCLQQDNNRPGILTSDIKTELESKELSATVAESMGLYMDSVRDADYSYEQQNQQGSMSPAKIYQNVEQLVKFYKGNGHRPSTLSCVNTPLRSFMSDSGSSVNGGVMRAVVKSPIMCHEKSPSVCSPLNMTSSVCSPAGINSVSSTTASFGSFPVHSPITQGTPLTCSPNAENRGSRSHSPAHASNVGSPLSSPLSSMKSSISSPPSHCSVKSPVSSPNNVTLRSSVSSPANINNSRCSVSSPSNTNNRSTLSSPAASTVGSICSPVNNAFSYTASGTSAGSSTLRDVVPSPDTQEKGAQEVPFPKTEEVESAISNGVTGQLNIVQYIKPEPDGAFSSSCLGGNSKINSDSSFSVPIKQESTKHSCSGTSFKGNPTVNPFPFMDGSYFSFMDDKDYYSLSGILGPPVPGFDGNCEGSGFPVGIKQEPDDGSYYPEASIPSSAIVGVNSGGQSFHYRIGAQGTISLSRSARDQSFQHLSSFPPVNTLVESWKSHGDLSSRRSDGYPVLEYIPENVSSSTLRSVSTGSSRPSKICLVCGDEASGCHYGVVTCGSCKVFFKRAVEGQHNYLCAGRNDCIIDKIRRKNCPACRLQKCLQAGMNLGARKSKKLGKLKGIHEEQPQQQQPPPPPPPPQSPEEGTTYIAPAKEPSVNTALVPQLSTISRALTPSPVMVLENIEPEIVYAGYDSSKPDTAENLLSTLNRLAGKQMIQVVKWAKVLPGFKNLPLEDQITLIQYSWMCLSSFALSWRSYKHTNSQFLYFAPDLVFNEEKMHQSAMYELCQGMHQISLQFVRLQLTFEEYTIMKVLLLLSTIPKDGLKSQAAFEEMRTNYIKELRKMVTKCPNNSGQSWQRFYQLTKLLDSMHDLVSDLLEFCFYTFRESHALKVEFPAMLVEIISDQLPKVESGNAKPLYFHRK
protocol: Cortisol-induced transactivation assay, TAT3-Luc reporter in Cos-1 cells
assayContext: TAT-3 promoter, 24 h, read-out: EC50 of cortisol-induced luciferase transcription
measurementLabel: EC50 (nM)
Just the number please, in nM, no unit attached.

In: Recorded EC50 of C[C@]12CCC(=O)C=C1CC[C@@H]1[C@@H]2[C@@H](O)C[C@@]2(C)[C@H]1CC[C@]2(O)C(=O)CO , please.
Out: 0.019

Reference source: patent US9644240B2
